# Test system: cynomolgus CD45 ectodomain
# Sequence (as listed by the source): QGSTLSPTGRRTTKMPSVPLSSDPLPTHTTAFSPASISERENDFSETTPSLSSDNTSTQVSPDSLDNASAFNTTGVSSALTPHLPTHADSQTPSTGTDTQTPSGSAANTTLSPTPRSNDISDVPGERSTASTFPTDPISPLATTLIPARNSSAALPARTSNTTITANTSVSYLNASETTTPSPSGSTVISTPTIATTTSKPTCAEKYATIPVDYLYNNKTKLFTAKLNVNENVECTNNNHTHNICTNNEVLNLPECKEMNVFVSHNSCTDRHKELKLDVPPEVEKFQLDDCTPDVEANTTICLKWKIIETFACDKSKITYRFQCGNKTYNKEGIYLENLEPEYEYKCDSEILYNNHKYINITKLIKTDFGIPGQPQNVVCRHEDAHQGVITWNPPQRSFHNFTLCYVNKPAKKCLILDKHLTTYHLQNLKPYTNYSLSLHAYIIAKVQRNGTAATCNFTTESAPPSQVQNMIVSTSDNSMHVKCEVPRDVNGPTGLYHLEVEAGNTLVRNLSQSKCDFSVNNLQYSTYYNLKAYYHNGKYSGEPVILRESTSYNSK
# protocol text: Biolayer interferometry (BLI, Octet) binding of immobilized IgG to purified CD45 ectodomain
# measurement context: Table 2, Cynomolgus CD45
experimental endpoint: Kdis (s⁻¹)
// return numeric value only (unit: s⁻¹, not printed)

What does the data say about its Kdis? Entry: Ab3: affinity matured human anti-CD45 IgG derived from Ab1; VH SEQ ID NO:21, VL SEQ ID NO:25 (antibody, V domains shown) VH: QVQLVESGGGLVKPGGSLRLSCAASGFTFGGYSMNWVRQAPGKGLEWVSYISISGATITYADSVKGRFTISRDNAKNSLYLQMNSLRAEDTAVYYCARGGQYYYDSSDYGEVAFDIWGQGTMVTVSS VL: DIVMTQSPLSLPVTPGEPASISCRSSQSLVSNGYNYLDWYLQKPGQSPQLLIYFGSSRASGVPDRFSGSGSGTDFTLKISRVEAEDVGVYYCMQRRRTPPFTFGGGTKVEIK 0.000192
